All values here come from paper PMC6438538.

MEASUREMENT NAME: pIC50
Please keep in mind that pIC50 is minus log10 of the molar concentration; only the number is needed.

### Prompt // map CC(C)=CCC/C(C)=C/CC/C(C)=C/CC[C@@](C)(O)CCc1c(C)c(O)c(C)c(C)c1O [EPI-743-HQ, EPI-743 hydroquinone] to recorded pIC50 (system: 15-lipoxygenase-1 (15-LO) (Homo sapiens, UniProt P16050))
Sequence (P16050 2-662): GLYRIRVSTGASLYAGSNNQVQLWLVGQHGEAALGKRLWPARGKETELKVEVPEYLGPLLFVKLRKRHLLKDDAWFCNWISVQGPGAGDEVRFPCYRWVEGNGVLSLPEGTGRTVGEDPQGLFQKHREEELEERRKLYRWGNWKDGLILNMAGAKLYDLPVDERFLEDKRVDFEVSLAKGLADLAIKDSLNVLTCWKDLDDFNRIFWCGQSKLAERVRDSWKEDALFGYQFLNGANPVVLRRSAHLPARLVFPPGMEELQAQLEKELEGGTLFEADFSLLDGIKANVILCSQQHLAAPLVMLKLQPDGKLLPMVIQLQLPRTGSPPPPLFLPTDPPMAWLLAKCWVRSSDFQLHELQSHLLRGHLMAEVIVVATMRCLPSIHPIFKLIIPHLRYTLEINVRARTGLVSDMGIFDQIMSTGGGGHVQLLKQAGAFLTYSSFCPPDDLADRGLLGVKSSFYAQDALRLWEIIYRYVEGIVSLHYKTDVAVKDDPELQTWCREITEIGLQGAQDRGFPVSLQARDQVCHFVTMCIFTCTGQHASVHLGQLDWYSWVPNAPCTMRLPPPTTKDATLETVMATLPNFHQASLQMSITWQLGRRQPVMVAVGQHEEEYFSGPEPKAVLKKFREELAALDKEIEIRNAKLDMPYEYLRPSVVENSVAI
### Response 5.36
